Quick list: cytotoxicity at 10 µM per entry.
assay: Toxicity liver stage against HepG2, at 10uM; type: cell-based; design: test concentration 10 uM, cell line HepG2-A16-CD81EGFP; conditions: human, HepG2-A16-CD81EGFP cells; read-out: INHIBITION
Numeric answer only, unit % assumed.

Record excerpt, results attached:
>  <compound>
CC1CCc2c(c3ccccc3[nH]c2=O)O1 (centres undefined)

>  <experimentalValue>
-8.41

$$$$
>  <compound>
CNc1nc2cn(C3CC(C)(C)NC(C)(C)C3)c(=O)c-2c[nH]1

>  <experimentalValue>
12

$$$$
>  <compound>
CNC(=O)[C@H]1C[C@H]2CN(C(=O)Nc3ccccc3)C[C@@H]1O2

>  <experimentalValue>
1.91

$$$$
>  <compound>
CC(C)C(=O)NC1CCN(c2cccc(OC(F)(F)F)c2)C1=O (centres undefined)

>  <experimentalValue>
-4.13

$$$$
>  <compound>
O=C(c1c[nH]nc1-c1cccc(F)c1)N1CCNC(c2ccccc2)C1 (centres undefined)

>  <experimentalValue>
-3.68

$$$$

Inquiry: Please give the measured cytotoxicity at 10 µM for this compound: COCCN1CCC2(CC1)CN(CCn1cccn1)C(=O)CO2
Reply text: 7.22

Inquiry: Please give the measured cytotoxicity at 10 µM for this compound: CC(C)NC(=O)N1CCC2(CC1)CCn1c(C3CC3)cnc12
Reply text: 2.04

Inquiry: Please give the measured cytotoxicity at 10 µM for this compound: CC(C)c1nc2n(n1)CC(NCc1nnc(C3CC3)o1)CC2 (centres undefined)
Reply text: -11.6

Inquiry: Please give the measured cytotoxicity at 10 µM for this compound: CCN1CCC2(CC1)OCCN2C(=O)c1cc(Cl)c(OC)c(Cl)c1
Reply text: 9.31

----------
Quick list: cytotoxicity at 10 µM per entry.
experiment: Toxicity liver stage against HepG2, at 10uM; format: cell-based; set-up: test concentration 10 uM, cell line HepG2-A16-CD81EGFP; conditions: human, HepG2-A16-CD81EGFP cells; read-out: INHIBITION
Numeric answer only, unit % assumed.

>  <compound>
CCn1cc(C(=O)Nc2ccc(C)cc2C(=O)OC)cn1

>  <experimentalValue>
5.47

$$$$

Inquiry: Please give the measured cytotoxicity at 10 µM for this compound: O=C(c1csc(-c2ncccn2)n1)N1CCN(C2CCCC2)CC1
Reply text: 4.87

Inquiry: Please give the measured cytotoxicity at 10 µM for this compound: CCCc1nnc(N2CCN(c3cccc(C)c3C)CC2)o1
Reply text: 9.59

Inquiry: Please give the measured cytotoxicity at 10 µM for this compound: CCCC(=O)N1CCCC1(C)c1nc(C)no1 (centres undefined)
Reply text: 0.79

Inquiry: Please give the measured cytotoxicity at 10 µM for this compound: CCn1cncc1C1CC(=O)Nc2c1c(C)nn2C (centres undefined)
Reply text: -0.557

Inquiry: Please give the measured cytotoxicity at 10 µM for this compound: c1ccc2oc(N3CCn4c(nnc4C4CC4)C3)nc2c1
Reply text: 7.41

----------
Quick list: cytotoxicity at 10 µM per entry.
test: Toxicity liver stage against HepG2, at 10uM; type: cell-based; set-up: test concentration 10 uM, cell line HepG2-A16-CD81EGFP; conditions: human, HepG2-A16-CD81EGFP cells; read-out: INHIBITION
Numeric answer only, unit % assumed.

Record excerpt, results attached:
>  <molecule>
Cc1cccc(CN2CC[C@@H]3[C@@H]2CCN3C(=O)Cc2ccsc2)n1

>  <unitsOfMeasure>
%

>  <cytotoxicity at 10 µM>
-107

$$$$
>  <molecule>
O=C1CCNc2cc3c(cc2CN1CC1CC1)OCO3

>  <unitsOfMeasure>
%

>  <cytotoxicity at 10 µM>
-5.83

$$$$
>  <molecule>
CCN(CC1CCCO1)C(=O)CSCC(=O)Nc1ccc(C)cc1 (stereo unspecified)

>  <unitsOfMeasure>
%

>  <cytotoxicity at 10 µM>
-1.69

$$$$
>  <molecule>
CN(C)CC1CN(Cc2ccc(F)cc2)Cc2nccn2C1 (stereo unspecified)

>  <unitsOfMeasure>
%

>  <cytotoxicity at 10 µM>
-71.1

$$$$
>  <molecule>
CC(=O)N1CCN(CCNc2snc(Cl)c2C#N)CC1

>  <unitsOfMeasure>
%

>  <cytotoxicity at 10 µM>
5.69

$$$$

Please turn your attention to the following entry.
Inquiry: Please give the measured cytotoxicity at 10 µM for this molecule: O=C(c1ccc(=O)[nH]n1)N(CCO)Cc1cc(Br)ccc1F
Reply text: 7.56

src = ChEMBL document CHEMBL4513216
